read-out: Monocyte Chemoattractant Protein-1 (MCP1), CCL2 (gene 6347); assay: BSK_hDFCGF_MCP1: BioMAP Diversity Plus: hDFCGF Assay for Monocyte Chemoattractant Protein-1 (MCP1) Biomarker Activity (AID 2284285); conditions: primary human foreskin fibroblasts
Calls of active or inactive are those of the source. How the source made its calls: active means hit-call score of the fitted dose curve at least 0.9, where 1 is the maximum; inactive means score below 0.9.
Entry note: the call must match one of Yes for active, No for inactive

compound	discrete label
C=C[Si](OC(C)=O)(OC(C)=O)OC(C)=O	No
CN1C(=O)N(C)C(O)C1O (stereo unspecified)	No
O=C(c1ccc(O)cc1)c1ccc(O)cc1O	No
Nc1ccc(N)c(Cl)c1	Yes

Qu. Test call for this compound, please: CCO[Si](C)(OCC)OCC
Ans. No

Qu. Test call for this compound, please: CO[Si](OC)(OC)c1ccccc1
Ans. No

---

read-out: Monokine induced gamma interferon (MIG), CXCL9 (gene 4283); assay: BSK_BE3C_MIG: BioMAP Diversity Plus: BE3C Assay for Monokine induced gamma interferon (MIG) Biomarker Activity (AID 2283035); settings: primary human bronchial epithelial cells; actives raise or lower the signal
Calls of active or inactive are those of the source. How the source made its calls: active means hit-call score of the fitted dose curve at least 0.9, where 1 is the maximum; inactive means score below 0.9.
Entry note: the call must match one of yes (1) for active, no (0) for inactive

Take a look at these entries with their results.
molecule	discrete label
CCCCC(CC)COCC1CO1 (centres undefined)	no (0)
C#CC1(O)CC[C@H]2[C@@H]3CCC4=CCCC[C@@H]4[C@H]3CC[C@@]21C (some centres undefined)	yes (1)

Okay, now this molecule:
Qu. Test call for this molecule, please: O=C(c1ccc(O)cc1)c1ccc(O)cc1O
Ans. no (0)

---

assay: ATG_PPRE_CIS: Attagene CIS-FACTORIAL HepG2 Assay for human Peroxisome Proliferator-activated Response Element (PPRE) (AID 2282958); settings: HepG2 PPRE cis-element reporter, Attagene transcription factor profiling; actives raise or lower the signal
The source made the active and inactive calls. How the source made its calls: active means hit-call score of the fitted dose curve at least 0.9, where 1 is the maximum; inactive means score below 0.9.
Entry note: the call must match one of true (1) for active, false (0) for inactive

compound	discrete label
N#CCc1ccc(Cl)cc1Cl	false (0)
CCCCCCCCc1ccc(Nc2ccc(CCCCCCCC)cc2)cc1	false (0)
Cc1cccc(N(C)C(=S)Oc2ccc3ccccc3c2)c1	true (1)

Okay, now this compound:
Qu. Test call for this compound, please: O=C1CC2CC1C1CCCC21 (centres undefined)
Ans. false (0)

---

assay: BSK_BT_PBMCCytotoxicity: PBMC Cytotoxicity Assessment in the BioMAP Diversity Plus: BT Assay (AID 2284225); conditions: primary human B cells with PBMC;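 further: PBMC viability measured by Alamar Blue dye reduction fluorescence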
The source made the active and inactive calls. The calls were made as follows: active = hit-call score of the fitted dose curve at least 0.9, where 1 is the maximum; inactive = score below 0.9.
Entry note: the call must match one of yes = active, no = inactive

Take a look at these entries with their results.
molecule	discrete label
C/C=C\C/C=C/CCCCCCCCOC(C)=O	yes
C=CC=CC=CCCCCC	no
C=CCOc1c(Br)cc(Br)cc1Br	no

Qu. Test call for this molecule, please: CCO[Si](CCCN=C=O)(OCC)OCC
Ans. no

Qu. Test call for this molecule, please: O=C(Cl)c1cc(C(=O)Cl)cc(C(=O)Cl)c1
Ans. yes

Qu. Test call for this molecule, please: CC(C)C(=O)C(C)C
Ans. no

Qu. Test call for this molecule, please: CCCCC(CC)COC(=O)c1ccccc1O (configuration not stated)
Ans. no

Qu. Test call for this molecule, please: CC1OC1C1CCC2(C)OC2C1 (configuration not stated)
Ans. no

Qu. Test call for this molecule, please: c1ccc(-c2ccccn2)nc1
Ans. no
